- test target: UniProtKB Q8IYT8
- Sequence (Q8IYT8 whole entry, looked up): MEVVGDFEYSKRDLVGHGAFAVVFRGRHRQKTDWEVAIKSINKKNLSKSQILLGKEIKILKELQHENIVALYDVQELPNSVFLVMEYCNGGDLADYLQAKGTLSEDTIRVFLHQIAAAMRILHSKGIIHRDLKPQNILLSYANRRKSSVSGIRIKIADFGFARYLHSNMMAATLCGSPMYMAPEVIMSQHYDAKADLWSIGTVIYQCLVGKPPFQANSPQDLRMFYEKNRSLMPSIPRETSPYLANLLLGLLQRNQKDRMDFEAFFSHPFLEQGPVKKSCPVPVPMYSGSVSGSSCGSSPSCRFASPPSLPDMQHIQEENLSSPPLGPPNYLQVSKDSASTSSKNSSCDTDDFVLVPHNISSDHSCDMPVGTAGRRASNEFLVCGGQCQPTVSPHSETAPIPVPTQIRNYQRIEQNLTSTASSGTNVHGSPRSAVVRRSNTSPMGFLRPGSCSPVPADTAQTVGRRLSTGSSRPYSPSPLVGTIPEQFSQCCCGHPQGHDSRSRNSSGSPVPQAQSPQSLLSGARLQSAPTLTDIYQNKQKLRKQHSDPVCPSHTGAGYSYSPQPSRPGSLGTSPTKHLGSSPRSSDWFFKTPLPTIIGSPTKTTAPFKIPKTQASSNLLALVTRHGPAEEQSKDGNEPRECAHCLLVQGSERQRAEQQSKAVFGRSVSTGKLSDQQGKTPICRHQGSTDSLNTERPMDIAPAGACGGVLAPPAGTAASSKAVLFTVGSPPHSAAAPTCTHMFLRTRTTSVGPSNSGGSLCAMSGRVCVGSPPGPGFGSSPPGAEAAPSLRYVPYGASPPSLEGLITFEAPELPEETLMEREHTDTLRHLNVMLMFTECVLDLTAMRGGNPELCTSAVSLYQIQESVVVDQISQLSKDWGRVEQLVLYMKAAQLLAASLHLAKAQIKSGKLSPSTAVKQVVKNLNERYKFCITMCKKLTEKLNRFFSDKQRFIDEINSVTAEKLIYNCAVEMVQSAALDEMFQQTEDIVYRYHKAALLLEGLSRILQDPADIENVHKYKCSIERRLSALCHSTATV
measured attribute: pKd
Give only the number. pKd is defined as minus log10 of concentration in molar units.

## Input Please list pKd recorded for the molecule "O=C1NC(=O)/C(=C/c2c[nH]c(=O)c(-c3ccc(N4CCNCC4)nc3)c2)S1"
## Output 6.66

* * *

- test target: TNK1 (human) (UniProt Q13470)
- Sequence (Q13470 whole entry, looked up): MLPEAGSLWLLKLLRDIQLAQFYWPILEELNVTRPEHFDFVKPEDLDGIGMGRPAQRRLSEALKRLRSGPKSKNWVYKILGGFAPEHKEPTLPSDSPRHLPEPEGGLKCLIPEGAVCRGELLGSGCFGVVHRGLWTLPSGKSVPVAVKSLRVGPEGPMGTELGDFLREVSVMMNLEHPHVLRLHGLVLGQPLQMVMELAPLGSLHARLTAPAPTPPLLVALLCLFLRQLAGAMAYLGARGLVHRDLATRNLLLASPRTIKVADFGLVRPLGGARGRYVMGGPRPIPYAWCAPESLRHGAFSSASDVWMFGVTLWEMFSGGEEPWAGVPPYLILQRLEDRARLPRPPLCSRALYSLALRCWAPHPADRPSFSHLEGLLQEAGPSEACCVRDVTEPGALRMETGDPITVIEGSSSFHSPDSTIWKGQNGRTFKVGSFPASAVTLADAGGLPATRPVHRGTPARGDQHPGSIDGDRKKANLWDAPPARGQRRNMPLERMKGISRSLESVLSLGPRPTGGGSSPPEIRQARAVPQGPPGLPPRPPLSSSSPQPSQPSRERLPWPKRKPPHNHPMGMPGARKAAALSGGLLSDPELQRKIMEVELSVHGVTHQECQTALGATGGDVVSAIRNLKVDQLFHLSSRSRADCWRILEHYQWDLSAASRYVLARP
- measurement description: KINOMEscan competition binding
- particulars: compound 10.0 µM
kinase still bound, per cent of control strictly less than 10% = true. Otherwise false.

## Input Problem: For the compound "CCOc1cc(N2CCC(O)CC2)ccc1Nc1ncc2c(n1)N(C)c1ccccc1C(=O)N2C" , is kinase still bound, per cent of control under 10%?
## Output true

## Input Problem: For the compound "COc1cc(N2CCN(C)CC2)ccc1Nc1ncc2c(n1)N(C)c1sccc1C(=O)N2C" , is kinase still bound, per cent of control under 10%?
## Output true

## Input Problem: For the compound "COc1cc(N2CCN(C)CC2)ccc1Nc1ncc2c(n1)N(C(C)C)c1ccccc1C(=O)N2C" , is kinase still bound, per cent of control under 10%?
## Output true

## Input Problem: For the compound "CN1C(=O)[C@H]2CCC[C@H]2N(C2CCCC2)c2nc(Nc3ccc4ncccc4c3)ncc21" , is kinase still bound, per cent of control under 10%?
## Output true

## Input Problem: For the compound "COc1cc(N2CCN(C)CC2)ccc1Nc1ncc2c(n1)N(C)c1ccccc1N(C)C2=O" , is kinase still bound, per cent of control under 10%?
## Output true

## Input Problem: For the compound "CCOc1cc(N2CCC(O)CC2)ccc1Nc1ncc2c(n1)N(C1CCCC1)CCC(=O)N2CC" , is kinase still bound, per cent of control under 10%?
## Output false

## Input Problem: For the compound "COc1cc(N2CCC(C)(O)CC2)ccc1Nc1ncc2c(n1)N(C1CCCC1)CCC(=O)N2C" , is kinase still bound, per cent of control under 10%?
## Output false

## Input Problem: For the compound "COc1cc(N2CCN(CCO)CC2)ccc1Nc1ncc2c(n1)N(C1CCCC1)CCC(=O)N2C" , is kinase still bound, per cent of control under 10%?
## Output false
